Attribute: composite z-score
Subject Of Test: Calmodulin-1 (Homo sapiens)
Test Summary: calcium-bound CALM1 binders on microarrays, profiling panel, artefact control for SMM control-protein annotation, biochemical, small-molecule microarray, Cy5-labelled CALM1, plus calcium (AID 1112);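 further: score merges spot fluorescence with signal to noise from triplicate slides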
Experimental Conditions: Cy5-CALM1 binding fluorescence, higher = more signal

{"Compound": "CCCCCCCCCCC(O)C1C=CC2C(=O)N(C)C(=O)C2N1NC(=O)OC(C)(C)C (stereo unspecified)", "composite z-score": 0.953}
{"Compound": "COC(=O)c1c2oc(c1C(=O)OC)C(=O)N(Cc1ccccc1)Cc1cn(nn1)C[C@H](Cc1ccccc1)NC(=O)N[C@H](CO)CC2", "composite z-score": -0.464}
{"Compound": "COCCOC(=O)N1C(=O)[C@@]2(c3cc(C#CC4=CCCCC4)ccc31)[C@H](c1ccccc1OCCO)N1[C@H](c3ccccc3)[C@H](c3ccccc3)OC(=O)[C@H]1[C@@H]2C(=O)Nc1nc2ccccc2s1", "composite z-score": 0.13}
{"Compound": "COC(=O)c1ccc([C@H](NC(=O)c2ccco2)[C@]2(C)C[C@H]2C2CCCCC2)cc1", "composite z-score": 1.39}
{"Compound": "Cc1ccc(S[C@]2(C(=O)NCCCN(C)C)CC(=O)N(C3CCCCC3)[C@@H]2c2ccc(CO)cc2)cc1", "composite z-score": -0.677}
{"Compound": "CC(C)[Si](C#C[Si](C(C)C)(C(C)C)C(C)C)(O[C@H](C)c1cn([C@H](CO)Cc2ccccc2)nn1)C(C)C", "composite z-score": -0.393}
{"Compound": "CCOC(=O)C[C@H]1[C@H](OC(=O)c2ccccc2-c2ccccc2)[C@@H](NC(=O)C2CCCCC2)c2cc(OCCCO)ccc2N1C(=O)Cc1ccc(OC)cc1", "composite z-score": -0.326}
{"Compound": "O=C1O[C@H](c2ccccc2)[C@H](c2ccccc2)N2[C@H]1[C@@H](C(=O)Nc1nc3ccccc3s1)[C@]1(C(=O)Nc3ccccc31)[C@H]2c1ccc(OCCO)cc1", "composite z-score": -0.302}
{"Compound": "COCCOC(=O)N1C(=O)[C@@]2(c3cc(C#CCCO)ccc31)[C@H](c1ccccc1OCCO)N1[C@H](c3ccccc3)[C@H](c3ccccc3)OC(=O)[C@H]1[C@@H]2C(=O)Nc1nc2ccccc2s1", "composite z-score": 0.704}
{"Compound": "C=C[C@@H](COC(C)=O)N(C(=O)OC(C)(C)C)S(=O)(=O)c1ccc(Br)cc1", "composite z-score": 0.367}
{"Compound": "C=CCN1C(=O)[C@@]2(CCS(=O)(=O)c3ccccc3)N=C(c3ccc(OCCCO)cc3)O[C@H]2c2ccccc21", "composite z-score": -0.313}
{"Compound": "COCCOC(=O)N1C(=O)[C@@]2(c3cc(C#CC4(O)CCCCCC4)ccc31)[C@H](c1ccc(O)cc1)N1[C@H](c3ccccc3)[C@H](c3ccccc3)OC(=O)[C@H]1[C@@H]2C(=O)NC[C@H](O)c1ccccc1", "composite z-score": 0.524}
{"Compound": "COCCOC(=O)N1C(=O)[C@@]2(c3cc(C#CC4=CCCCC4)ccc31)[C@H](c1ccc(O)cc1)N1[C@H](c3ccccc3)[C@H](c3ccccc3)OC(=O)[C@H]1[C@@H]2C(=O)N1CCN(c2ncccn2)CC1", "composite z-score": 0.451}
{"Compound": "CCOC(=O)c1ccc(NC(=O)O[C@H]2[C@H](OC(=O)Nc3ccc4c(c3)OCO4)[C@@H](OC(=O)Nc3ccc4c(c3)OCO4)[C@@H](OC)O[C@@H]2CO)cc1", "composite z-score": -0.393}
{"Compound": "[N-]=[N+]=Nc1ccccc1[C@@H]1OC(c2ccc(OCCCO)cc2)=N[C@]1(Cc1ccccc1)C(=O)NCC(O)CO (stereo partly specified)", "composite z-score": 1.18}
{"Compound": "COCCOC(=O)N1C(=O)[C@@]2(c3cc(C#Cc4ccc(OC)cc4)ccc31)[C@H](c1ccc(O)cc1)N1[C@H](c3ccccc3)[C@H](c3ccccc3)OC(=O)[C@H]1[C@@H]2C(=O)N1CCCCCCC1", "composite z-score": 0.946}
{"Compound": "C[N+](C)(C)CCCCCCNC(=O)[C@H]1C[C@H]2C(=O)N[C@@H](Cc3ccccc3)C(=O)N2[C@H]1c1ccc(O)cc1", "composite z-score": -0.973}
{"Compound": "CCCC[C@@H](O)C1=C(COc2ccccc2)C[C@H]2C(=O)N(C)C(=O)[C@H]2[C@H]1CO", "composite z-score": -0.527}
{"Compound": "C=C(COC)C(=O)CC[C@@H](OC(=O)c1cccnc1)c1ccc(OCCO)cc1", "composite z-score": -0.804}
{"Compound": "COc1ccccc1CN1C(=O)c2ccccc2[C@](Cc2ccccc2I)(C(=O)NCC(F)(F)F)[C@@H]1c1ccc(CO)cc1", "composite z-score": 0.731}
{"Compound": "C=CCNC(=O)[C@H]1[C@@H]2C(=O)O[C@@H](c3ccccc3)[C@@H](c3ccccc3)N2[C@@H](c2ccc(O)cc2)[C@]12C(=O)Nc1ccc(C#CC3(O)CCCCCC3)cc12", "composite z-score": 0.215}

----------
We begin with a simple list: items and their reported composite z-score.
Subject Of Test: Dihydroorotate dehydrogenase (quinone), mitochondrial (Plasmodium falciparum (isolate 3D7))
Test Summary: PfDHODH enzyme inhibitors, primary screen, biochemical, C-terminal His tag, absorbance 600 nm (AID 1175);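 further: recombinant parasite enzyme with a five histidine tag at its C terminus; test concentration not given here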
Experimental Conditions: DCIP absorbance 600 nm, higher = more signal, called active from +8 up or from −8 down
Quantity Measured: composite z-score

{"Molecule": "C=C(/C(=C/C[C@H](OC(C)=O)c1cccc(OCCO)c1)c1cnc2ccccc2c1)C(C)C", "Quantitative Result": -5.52}
{"Molecule": "C[C@H]1NC(=O)[C@@]23C(=O)N[C@@H](Cc4ccccc4)C2[C@H](C)[C@@]2(C)O[C@H]2C3/C=C/C/C=C\\CNC(=O)[C@H](Cc2ccccc2)NC1=O (stereo partly specified)", "Quantitative Result": 0.226}
{"Molecule": "COCCOC(=O)N1C(=O)[C@@]2(c3cc(C#CCC(C(=O)OC)C(=O)OC)ccc31)[C@H](C(=O)N1CCc3cc(OC)c(OC)cc3C1)[C@H]1C(=O)O[C@H](c3ccccc3)[C@H](c3ccccc3)N1[C@@H]2c1ccc(OCCO)cc1", "Quantitative Result": -1.34}
{"Molecule": "COc1ccc([Si](C)(C)[C@@H]2[C@@H](CCn3cc([C@H](O)c4ccccc4)nn3)O[C@]3(C(=O)N(Cc4ccc(N5CCC5=O)cc4)c4ccccc43)[C@H]2C)cc1", "Quantitative Result": -0.102}
{"Molecule": "CC=CC(O)C1C=CC2C(=O)N(c3ccccc3)C(=O)C2N1Nc1ccccc1F (stereo unspecified)", "Quantitative Result": -0.813}
{"Molecule": "CC1=C([C@H](O)CCc2ccccc2)[C@H](CO)[C@@H]2C(=O)N(C)C(=O)[C@@H]2C1", "Quantitative Result": -1.2}

----------
Subject Of Test: Calmodulin-1 (Homo sapiens) (UniProt P0DP23)
Test Summary: calcium-bound CALM1 binders on microarrays, profiling panel, artefact control for SMM control-protein annotation, biochemical, small-molecule microarray, Cy5-labelled CALM1, plus calcium (AID 1112);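 further: score merges spot fluorescence with signal to noise from triplicate slides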
Experimental Conditions: Cy5-CALM1 binding fluorescence, higher = more signal
Is composite z-score at least -0.8? Then Condition met. If not, Condition not met.

{"Molecule": "O=C(NCC(F)(F)F)[C@@H]1c2ccccc2C(=O)N(Cc2cc(F)cc(C(F)(F)F)c2)[C@H]1c1ccc(CO)cc1", "Class Name": "Condition met"}
{"Molecule": "CCCCN1CC=CC23O[C@@H]4/C=C\\CCC(C)OC(=O)C4[C@H]2C(=O)N(C(CO)C(C)C)[C@@H]3C1=O (stereo partly drawn)", "Class Name": "Condition not met"}
{"Molecule": "CC(C)N1C(=O)C[C@@](C(=O)NCCCN(C)C)(c2ccc([N+](=O)[O-])cc2)[C@H]1c1ccc(CO)cc1", "Class Name": "Condition met"}
{"Molecule": "CC(CO)N1C(=O)[C@@H]2[C@H]3C(=O)OCC=C[C@H]3OC23C=CCN(C(C)(C)C)C(=O)[C@@H]13 (stereo partly drawn)", "Class Name": "Condition met"}
{"Molecule": "CN(C)C(=O)[C@@]1(CCS(=O)(=O)c2ccccc2)N=C(c2ccc(OCCCO)cc2)O[C@H]1c1ccccc1", "Class Name": "Condition met"}
{"Molecule": "C=CC1c2cc(O)c(OC)cc2CCN1Cc1cc2c(cc1Br)OCO2 (stereo not drawn)", "Class Name": "Condition not met"}
{"Molecule": "C=CC[C@]1(C(=O)O)COC(c2ccc(OCCCO)cc2)=N1", "Class Name": "Condition met"}
{"Molecule": "C=CCOC(=O)[C@H]1[C@@H]2C(=O)O[C@@H](c3ccccc3)[C@@H](c3ccccc3)N2[C@@H](c2ccc(OCCOC(=O)[C@@H]3C[C@@H]4C(=O)N[C@@H](CCCCN(C)C)C(=O)N4[C@@H]3c3ccc(O)cc3)cc2)[C@]12C(=O)Nc1ccccc12", "Class Name": "Condition not met"}
